// provenance: ChEMBL document CHEMBL1201862

// GI50 lookup, one value per entry
# Tested on: EKVX
# EXPERIMENT: NCI tumour cell line growth inhibition, 48 h
Active and inactive are the calls of the source. Cut-off read from the data, not from the text of the source: active = GI50 up to about 1.1 µM and inactive = higher.

Field: example entries. Status: answers known.
O=C1C(Cl)C(c2cc3cc(Br)ccc3nc2Cl)N1c1ccc(Cl)cc1 (stereo not given) ... 4.16 µM (inactive)
CCOP(=O)(OCC)OC1CC(n2cnc3c(N(CC)CC)ncnc32)OC1CO[Si](C)(C)C(C)(C)C (stereo not given) ... 5.86 µM (inactive)
CC(C)(C)OC(=O)[N+](=N)C(=O)C1CCC(=O)N1C(=O)OCc1ccccc1 (stereo not given) ... > 100 µM (inactive)
Cc1cccc(C)c1NC(=O)C(=O)Nn1c(NN)nc2ccccc2c1=O ... > 100 µM (inactive)

// query Which GI50 reading was recorded for the compound CCOc1cccc2ccc[n+](CC)c12 ?
// result > 100 µM (inactive)

* * *

# Test system: SR
# EXPERIMENT: NCI tumour cell line growth inhibition, 48 h
Active and inactive are the calls of the source. Rule as the data show it: active = GI50 up to about 1.1 µM and inactive = higher.
READOUT LABEL: GI50

Cc1ccccc1NC(=S)N/N=C(/c1ccccc1)c1ccccn1 ... < 0.0262 µM (active)
O=C(Cc1ccccc1)NNc1nc(NNC(=O)c2ccncc2)nc(Nc2ccccc2)n1 ... > 10 µM (inactive)

// query Which GI50 reading was recorded for the compound CNc1c2cccc(C)c2nc2c(C(=O)NCCN(C)C)cccc12 ?
// result < 0.0288 µM (active)

// query Next compound: CCCc1cc(O)c2c(C)c3[nH]c4ccc(Cl)cc4c3c(C)c2n1
// result 1.88 µM (inactive)

// query Next compound: CC(O)(C(=O)N(O)c1ccc(Cl)cc1)c1ccc(Cl)cc1 (stereo unspecified)
// result 13.8 µM (inactive)

// query Next compound: NS(=O)(=O)c1ccc(NC(=O)N/N=C/c2ccccc2O)cc1
// result 22.2 µM (inactive)

// query Next compound: Cc1cccc(C2ON=C(c3ccccc3)N2C23CC4CC(CC(C4)C2)C3)c1 (stereo unspecified)
// result > 10 µM (inactive)

// query Next compound: O=P1(N2CCOCC2)OCCO1
// result > 100 µM (inactive)

// query Next compound: COC(=O)N1[C@H]2Cc3c(OC)c(C)c(OC)c(OC)c3[C@@H]1/C(=C\c1cc(OC)c(OC)c(C)c1OC)N(Cc1ccccc1)C2=O
// result 7.85 µM (inactive)

// query Next compound: C=C1[C@H](OC(=O)C(C)C)[C@@H](OC(C)=O)[C@@H](OC(C)=O)C(C)(C)[C@@H]2O[C@H]2[C@@H](C)C(=O)[C@@]2(OC(C)=O)C[C@@](C)(OC(C)=O)[C@H](OC(C)=O)[C@@H]2[C@H]1OC(C)=O
// result > 100 µM (inactive)

// query Next compound: NNC(=O)C(O)C(O)C(O)CO (stereo unspecified)
// result 67.8 µM (inactive)

// query Next compound: Cn1cnc([N+](=O)[O-])c1Sc1nc2cccnc2[nH]1
// result 35.9 µM (inactive)

// query Next compound: CCSc1nc(N)c2c(-c3ccc(OC)c(OC)c3)c3c(nc2n1)CCCC3
// result > 100 µM (inactive)

// query Next compound: COC1C=CC23c4cc5c(cc4C(O)OC2CN(C)C3C1)OCO5 (stereo unspecified)
// result 1.17 µM (inactive)

// query Next compound: O=C1CSC(c2ccccc2O)N1c1nc2cc3sc(N4C(=O)CSC4c4ccccc4O)nc3cc2s1 (stereo unspecified)
// result 7.71 µM (inactive)

// query Next compound: Fc1ccc2c(c1)nc1n2C(c2c(Cl)cccc2Cl)SC1 (stereo unspecified)
// result 3.94 µM (inactive)

// query Next compound: CC(=O)OCC(OC(C)=O)C1C[C@H]2O[C@@H]3[C@H](C[C@H]2O1)O[C@@]1(C[C@@H]3C)C[C@H](C)[C@@H]2O[C@]3(C[C@@H]2O1)C[C@H]1O[C@H]2[C@H](C)[C@H]4OC(=O)C[C@H]5CC[C@@H]6OC7[C@H]8O[C@]9(CC[C@H]%10CC(=O)[C@H](CC[C@H]%11C[C@@H](C)C(=O)C(C[C@@H]4O[C@H]2C[C@H]1O3)O%11)O%10)CC8O[C@@H]7[C@@H](O9)[C@H]6O5 (stereo partly specified)
// result 0.000233 µM (active)

// query Next compound: Nc1c(S(=O)(=O)O)cc(Nc2cccc(S(N)(=O)=O)c2)c2c1C(=O)c1ccccc1C2=O
// result > 100 µM (inactive)

// query Next compound: O=C(NN=C1CCCCC1)Nc1ccccc1Cl
// result 22.5 µM (inactive)

// query Next compound: O=C(Nc1ccc(Cl)cc1)c1cc(S(=O)(=O)Nc2n[nH]c(Nc3ccc4ccccc4c3)n2)c(SSc2cc(Cl)c(C(=O)Nc3ccc(Cl)cc3)cc2S(=O)(=O)Nc2n[nH]c(Nc3ccc4ccccc4c3)n2)cc1Cl
// result 23.7 µM (inactive)

// query Next compound: COc1ccc(C(OC(=O)[C@H](O[Si](C)(C)C(C)(C)C)[C@@H](NC(=O)c2ccccc2)c2ccccc2)c2ccc(OC)cc2)cc1
// result 36.6 µM (inactive)

// query Next compound: CC1=CC(C)(c2c[nH]c3ccccc23)CC(C)(C)c2c1[nH]c1ccccc21 (stereo unspecified)
// result 12.5 µM (inactive)

// query Next compound: C[C@H](CCC(=O)NCCS(=O)(=O)O)[C@H]1CC[C@H]2[C@@H]3CC[C@@H]4C[C@H](O)CC[C@]4(C)[C@H]3CC[C@]12C
// result 28.7 µM (inactive)
